# System: BxPC-3 (human orthotopic pancreatic adenocarcinoma cell)
# assay-summary: Cytotoxicity of compounds to tumor cell lines (MTS, 5 days)
# Format: cell-based
# condition-label: Homo sapiens, 120 h; BxPC-3, 5 days, MTS
property: pIC50
One number for each entry, as −log10 of the molar value.

Use these answered entries as a reference point.
[
  {
    "molecule": "C=C1C[C@@H]2CC[C@@]34C[C@H]5O[C@H]6[C@@H](O3)[C@H]3O[C@H](CC[C@@H]3O[C@H]6[C@H]5O4)CC(=O)C[C@@H]3[C@@H](OC)[C@@H](C[C@H](O)CN(C)S(C)(=O)=O)O[C@H]3C[C@H]3O[C@@H](CC[C@@H]1O2)C[C@@H](C)C3=C [D-14]",
    "pIC50": 11.00
  },
  {
    "molecule": "C=C1C[C@@H]2CC[C@@]34C[C@H]5O[C@H]6[C@@H](O3)[C@H]3O[C@H](CC[C@@H]3O[C@H]6[C@H]5O4)CC(=O)C[C@@H]3[C@@H](OC)[C@@H](C[C@H](O)CN(C)C(=O)C(F)F)O[C@H]3C[C@H]3O[C@@H](CC[C@@H]1O2)C[C@@H](C)C3=C [D-15]",
    "pIC50": 10.52
  },
  {
    "molecule": "C=C1C[C@@H]2CC[C@@]34C[C@H]5O[C@H]6[C@@H](O3)[C@H]3O[C@H](CC[C@@H]3O[C@H]6[C@H]5O4)CC(=O)C[C@@H]3[C@@H](OC)[C@@H](C[C@H](O)CN)O[C@H]3C[C@H]3O[C@@H](CC[C@@H]1O2)C[C@@H](C)C3=C [D-4(eribulin), eribulin]",
    "pIC50": 10.22
  }
]

Pending molecule:
Ask | Need pIC50 of C=C1C[C@@H]2CC[C@@]34C[C@H]5O[C@H]6[C@@H](O3)[C@H]3O[C@H](CC[C@@H]3O[C@H]6[C@H]5O4)CC(=O)C[C@@H]3[C@@H](OC)[C@@H](C[C@H](O)CN(C)C(=O)C(C)C)O[C@H]3C[C@H]3O[C@@H](CC[C@@H]1O2)C[C@@H](C)C3=C [D-11] , thanks.
Reply | 11.00
